Recorded IC50 values for a group of compounds are listed next.
Molecular target: SARS-CoV2 Mpro (Severe acute respiratory syndrome coronavirus 2 (2019-nCoV) (SARS-CoV-2))
OUTCOME MEASURE: IC50

COc1cccc2[nH]c(C(=O)N3Cc4ccccc4C3C(=O)N[C@H](C#N)C[C@@H]3CCNC3=O)cc12 (single isomer, unassigned) [429A (Isomer 2)] :: > 30 µM
N#C[C@H](C[C@@H]1CCNC1=O)NC(=O)C1CC2(CCC2)CN1C(=O)c1cc2ccc(Cl)c(Cl)c2[nH]1 (single isomer, unassigned) [814 (Isomer 1)] :: > 30 µM
COc1cccc2[nH]c(C(=O)N3CC4(CCCCC4)CC3C(=O)N[C@H](C#N)CC3CCC(C)(C)NC3=O)cc12 (single isomer, unassigned) [1111 (Isomer 4)] :: > 30 µM
COc1cccc2[nH]c(C(=O)N3CC4(CCC(F)(F)CC4)CC3C(=O)N[C@H](C#N)C[C@@H]3CCCNC3=O)cc12 (single isomer, unassigned) [982 (Isomer 1)] :: < 2 µM
COc1ccc(Cl)c2[nH]c(C(=O)N3CC4(CCCCC4)CC3C(=O)NC(C#N)C[C@@H]3CCCNC3=O)cc12 (single isomer, unassigned) [902 (Isomer 1)] :: < 2 µM

* * *

Target: 229E Mpro (Human coronavirus 229E (HCoV-229E), UniProt P0C6X1)
Sequence (P0C6X1 2966-3267 limits assumed): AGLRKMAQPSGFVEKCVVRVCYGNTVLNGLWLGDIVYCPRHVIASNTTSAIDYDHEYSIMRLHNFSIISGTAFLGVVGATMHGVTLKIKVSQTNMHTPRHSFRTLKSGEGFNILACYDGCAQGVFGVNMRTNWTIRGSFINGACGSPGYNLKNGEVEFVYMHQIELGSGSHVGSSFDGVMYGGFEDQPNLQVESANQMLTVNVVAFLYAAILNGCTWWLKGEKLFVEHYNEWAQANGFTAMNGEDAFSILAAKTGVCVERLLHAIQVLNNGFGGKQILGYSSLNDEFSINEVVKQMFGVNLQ
Assay: 229E Mpro activity
Type: biochemical
Details: read-out: 229E Mpro EC50
Recorded EC50 values for a group of molecules are listed next.
OUTCOME MEASURE: EC50

COc1cccc2[nH]c(C(=O)N[C@@H](CC(C)C)C(=O)NC(C#N)CC3CC(=O)Nc4ccccc43)cc12 (mixture of isomers) [Compound 249] :: > 30000 nM
COc1cccc2[nH]c(C(=O)N[C@@H](CC(C)C)C(=O)NC(C#N)c3cccnc3)cc12 (mixture of isomers) [Compound 433] :: < 2000 nM
N#C[C@H](C[C@@H]1CCCNC1=O)NC(=O)C1CC2(CCC2)CN1C(=O)c1cc2c(Cl)cccc2[nH]1 (single isomer, unassigned) [803 (Isomer 4)] :: < 2000 nM

* * *

Target: 229E Mpro (Human coronavirus 229E (HCoV-229E), UniProt P0C6X1)
Experiment: 229E Mpro activity
Assay type: biochemical
Details: read-out: 229E Mpro EC50
OUTCOME MEASURE: EC50

N#C[C@H](C[C@@H]1CCCNC1=O)NC(=O)[C@H](CC1CC1)NC(=O)c1cc2cnccc2[nH]1 :: < 2000 nM
COCCOCCOc1cccc2[nH]c(C(=O)N[C@@H](CC(C)(C)C)C(=O)N[C@H](C#N)C[C@@H]3CCCNC3=O)cc12 :: < 2000 nM
N#C[C@H](C[C@@H]1CCNC1=O)NC(=O)[C@@H](CC1CC1)n1cccc(NCC(F)(F)F)c1=O (single isomer, unassigned) [467 (Isomer 2)] :: > 30000 nM
CCCOc1cccc2[nH]c(C(=O)N[C@@H](CC3CC3)C(=O)N[C@H](C#N)C[C@@H]3CCNC3=O)cc12 :: < 2000 nM
COc1cccc2[nH]c(C(=O)N[C@@H](CC(C)C)C(=O)N[C@@H](C[C@@H]3CCNC3=O)C(C#N)Nc3ccccc3)cc12 (stereo partly drawn) :: < 2000 nM
N#C[C@H](C[C@@H]1CCNC1=O)NC(=O)[C@H](CC1CC1)NC(=O)c1cc2cccc(Cl)c2[nH]1 :: < 2000 nM
N#C[C@H](C[C@@H]1CCNC1=O)NC(=O)C1CC2(CCCCC2)CN1C(=O)c1cc2ccc(Cl)cc2[nH]1 (single isomer, unassigned) [878 (Isomer 2)] :: 10000 to 30000 nM
COc1cccc2[nH]c(C(=O)N[C@@H](Cc3cccc(Cl)c3)C(=O)N[C@H](C#N)C[C@@H]3CCNC3=O)cc12 :: 10000 to 30000 nM
N#C[C@H](C[C@@H]1CCNC1=O)NC(=O)C1CC2(CCC2)CN1C(=O)c1cc2cccc(Cl)c2[nH]1 (single isomer, unassigned) [988 (Isomer 2)] :: < 2000 nM
N#C[C@H](C[C@@H]1CCCNC1=O)NC(=O)[C@H](CC1CC1)NC(=O)c1cc2c(Cl)c(F)ccc2[nH]1 :: < 2000 nM
COc1cccc2[nH]c(C(=O)N[C@@H](CC(C)(C)F)C(=O)N[C@H](C#N)C[C@@H]3CCCNC3=O)cc12 :: < 2000 nM
COc1cccc2[nH]c(C(=O)N[C@H](C(=O)N[C@H](C#N)C[C@@H]3CCNC3=O)[C@@H]3Cc4ccccc4O3)cc12 :: > 30000 nM
COc1cccc2[nH]c(C(=O)N[C@@H](CC3CC3)C(=O)N[C@H](C#N)Cc3ccccn3)cc12 :: > 30000 nM
CC(C)(C)C[C@H](NC(=O)c1cc2c(Cl)cc(Cl)cc2[nH]1)C(=O)N[C@H](C#N)C[C@@H]1CCCNC1=O :: < 2000 nM
COc1ccc2[nH]c(C(=O)N3CC4(CCCCC4)CC3C(=O)N[C@H](C#N)C[C@@H]3CCNC3=O)cc2c1Cl (single isomer, unassigned) [880 (Isomer 2)] :: < 2000 nM
